All figures here come from patent US20220073604A1.

target: T1, bacterially produced human IL-6 (human, UniProt P05231 30-212); experiment: SPR (Biacore), periplasmic Fab
T1 construct: Immobilised on the Biacore chip; also called BACT IL-6 (2-1); bactIL-6
So I've got a bunch of binders here, and I need their Kd values.
Answers are plain numbers, in nM.

[[record]]
binder = "55E10 (Fab, V domains shown, Periplasmic Fab; Suffix 'g1' not explained; also called 55E10g1) VH: QVQLVESGGGLVQPGGSLRLSCAASGFTFSNYYMTWVRQAPGKGLEWVSSIYSFSGDTAYADSVKGRFTISRDNAKNTLYLQMNSLKSEDTAVYYCTRNLGGVVVTTNGYDYWGQGTQVTVSS VL: DIQMTQSPSSLPTSLGDSVTITCQASQSISDELSWYQQKPGQTPKLLIYGASKLQTGVPSRFSGSGSGTSFTLTISGLEAEDLATYYCLQGYSWPFMFGQGTKVELK"
observed = 0.315

[[record]]
binder = "48H1 (Fab, V domains shown, Periplasmic Fab; Suffix 'g2, R4' not explained; also called 48H1g2, R4) VH: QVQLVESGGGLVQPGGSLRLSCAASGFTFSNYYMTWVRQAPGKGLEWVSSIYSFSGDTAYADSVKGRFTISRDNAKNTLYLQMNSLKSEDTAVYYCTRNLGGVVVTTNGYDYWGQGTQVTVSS VL: DVVMTQSPSSLPTSLGDSVTITCQASQSISDELSWYQQKPGQTPKLLIYGASKLQTGVPSRFSGSGSGTSFTLTISGLEAEDLATYYCLQGYSWPFMFGQGTKVELK"
observed = 0.341

[[record]]
binder = "55A11 (Fab, V domains shown, Periplasmic Fab; Suffix 'd' of the label not explained; also called 55A11d) VH: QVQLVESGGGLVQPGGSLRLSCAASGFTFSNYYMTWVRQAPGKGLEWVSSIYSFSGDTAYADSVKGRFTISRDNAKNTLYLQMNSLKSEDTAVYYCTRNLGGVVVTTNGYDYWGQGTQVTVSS VL: DIQMTQSPSSLPTSLGDSVTITCQASQSISDELSWYQQKPGQTPKLLIYGASRLQTGVPSRFSGRGSGTSFTLTISGLEAEDLATYYCLQGYSWPFMFGQGTKVELK"
observed = 0.359


Shift focus to the following entry.
Can you share its Kd? I mean this binder: 55C11 (Fab, V domains shown, Periplasmic Fab; Suffix 'f' not explained; also called 55C11f) VH: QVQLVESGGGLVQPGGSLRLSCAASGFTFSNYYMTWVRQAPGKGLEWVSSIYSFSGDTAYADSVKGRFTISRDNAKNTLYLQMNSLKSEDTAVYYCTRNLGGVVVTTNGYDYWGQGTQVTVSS VL: DIQLTQSPSSLSASLGDSVTITCQASQSISDELSWYQQKPGQTPKLLIYGASKLQTGVPSRFSGSGSGTSFTLTISGLEAEDLATYYCLQGYRWPFMFGQGTKVELK 0.304
